# measurement protocol: TFE titration followed by far-UV CD (disordered-helical two-state equilibrium)
# Type: physicochemical
# stated conditions: TFE titration by far-UV CD, 20 µM peptide, two-state fit; fitting errors
readout label: [TFE]1/2

Need [TFE]1/2, item Ac-GWAEGLHARPASIFVRAATATG-NH2 [Wild-type]
23.2 ± 0.5 % (v/v)

What value of measured [TFE]1/2 is listed for Ac-GWAEGLHARAASAAARAATATG-NH2 [P18A/I21A/F22A/V23A] ?
21 ± 1 % (v/v)

[TFE]1/2 for Ac-GWAEGLHARPASIAVRAATATG-NH2 [Peptide F22A] ?
22 ± 1 % (v/v)

Fill in the blank: the reported [TFE]1/2 of Ac-GWAEGLHARAASAFARAATATG-NH2 [P18A/I21A/V23A] is ____.
19.0 ± 0.9 % (v/v)
